For each entry below, report its pIC50 value.
assayedSystem: baculovirus-expressed JAK2 kinase (Homo sapiens, UniProt O60674)
Sequence (O60674 whole entry): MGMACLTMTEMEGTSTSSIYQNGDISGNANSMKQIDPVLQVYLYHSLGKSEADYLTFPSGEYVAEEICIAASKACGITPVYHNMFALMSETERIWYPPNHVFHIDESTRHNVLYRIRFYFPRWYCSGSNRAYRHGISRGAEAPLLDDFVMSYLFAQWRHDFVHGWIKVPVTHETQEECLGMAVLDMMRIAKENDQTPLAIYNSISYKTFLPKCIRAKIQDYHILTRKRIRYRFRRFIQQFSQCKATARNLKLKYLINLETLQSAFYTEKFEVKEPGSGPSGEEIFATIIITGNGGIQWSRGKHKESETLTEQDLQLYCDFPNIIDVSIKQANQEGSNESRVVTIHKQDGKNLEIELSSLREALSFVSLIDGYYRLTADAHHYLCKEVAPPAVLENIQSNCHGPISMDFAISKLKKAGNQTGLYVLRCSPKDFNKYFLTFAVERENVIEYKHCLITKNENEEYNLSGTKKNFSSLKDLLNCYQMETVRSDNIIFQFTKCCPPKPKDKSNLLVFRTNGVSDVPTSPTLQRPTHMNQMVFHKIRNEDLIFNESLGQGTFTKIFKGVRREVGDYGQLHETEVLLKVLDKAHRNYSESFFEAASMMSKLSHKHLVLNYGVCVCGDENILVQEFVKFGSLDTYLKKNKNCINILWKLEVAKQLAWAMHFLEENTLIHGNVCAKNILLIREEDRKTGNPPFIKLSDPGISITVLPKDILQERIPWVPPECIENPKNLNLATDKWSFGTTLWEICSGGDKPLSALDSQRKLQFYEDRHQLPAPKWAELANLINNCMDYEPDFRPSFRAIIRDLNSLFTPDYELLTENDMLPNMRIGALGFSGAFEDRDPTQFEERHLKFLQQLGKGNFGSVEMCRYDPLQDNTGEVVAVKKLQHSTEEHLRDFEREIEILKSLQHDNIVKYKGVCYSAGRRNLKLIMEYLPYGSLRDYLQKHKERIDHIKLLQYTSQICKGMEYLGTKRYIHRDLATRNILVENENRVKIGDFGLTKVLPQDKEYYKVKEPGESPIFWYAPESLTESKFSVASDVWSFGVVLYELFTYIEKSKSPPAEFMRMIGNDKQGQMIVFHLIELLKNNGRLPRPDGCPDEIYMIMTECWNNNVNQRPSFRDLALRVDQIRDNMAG
procedureText: biochemical
conditionParameters: 0.2 μM ATP; read-out: JAK2 Potency
pIC50: −log10 of the molar value.

>>> result("CN1CCN(C(=O)c2cccc(-c3nc4c(N[C@H]5[C@@H](C(N)=O)[C@@H]6C=C[C@H]5C6)c(Cl)cnc4[nH]3)c2)CC1")
"> 7.00"
>>> result("COC[C@H](O)CN1CCC(n2cc(-c3nc4c(N[C@H]5[C@@H](C(N)=O)[C@@H]6C=C[C@H]5C6)c(Cl)cnc4[nH]3)cn2)CC1")
"> 7.00"

Alright, here's another compound for you.
Task: For the compound shown here, `COC[C@@H](O)CN1CCC(c2ccc(-c3nc4c(N[C@H]5[C@@H](C(N)=O)[C@@H]6C=C[C@H]5C6)c(Cl)cnc4[nH]3)c(OC)c2)CC1` , give the reported pIC50.
Output: > 7.00

====

Counter-ions that a name gives are not always drawn.
For each entry below, report its melting point value.

A selection of reference data follows.
>>> result("CN1CCN(c2ccc(-c3nc4c(N[C@H]5[C@@H](C(N)=O)[C@@H]6C=C[C@H]5C6)c(Br)cnc4[nH]3)cc2)CC1 [Compound LXXVIII]")
"215 to 218 °C"
>>> result("COc1ccc(-c2nc3c(N[C@H]4[C@@H](C(N)=O)[C@@H]5C=C[C@H]4C5)c(Cl)cnc3[nH]2)c(C2CCNCC2)c1 [Compound XXX]")
"199 to 200 °C"
>>> result("NC(=O)[C@@H]1[C@H](Nc2c(Br)cnc3[nH]c(-c4ccc(CN5CCOCC5)cc4)nc23)[C@H]2C=C[C@@H]1C2 (as salt: sodium) [Compound LXXX]")
"217 to 219 °C"
>>> result("NC(=O)[C@@H]1[C@H](Nc2c(Br)cnc3[nH]c(-c4cccnc4N4CCOCC4)nc23)[C@H]2C=C[C@@H]1C2 [Compound CII]")
"150 °C"
>>> result("COc1cc(N2CCC(N3CCN(C)CC3)CC2)ccc1-c1nc2c(N[C@H]3[C@@H](C(N)=O)[C@@H]4C=C[C@H]3C4)c(Br)cnc2[nH]1 [Compound XCVIII]")
"185 to 195 °C"

Record melting point for all entries; do not skip any.
1. NC(=O)[C@@H]1[C@H](Nc2c(Br)cnc3[nH]c(-c4cccc(CN5CCOCC5)c4)nc23)[C@H]2C=C[C@@H]1C2 [Compound LXXXI]
2. NC(=O)[C@@H]1[C@H](Nc2c(Cl)cnc3[nH]c(-c4ccc5c(c4)CCC4(CCNCC4)O5)nc23)[C@H]2C=C[C@@H]1C2 [Compound CXV]
3. COc1cc(C2CCN(C)CC2)ccc1-c1nc2c(N[C@H]3[C@@H](C(N)=O)[C@@H]4C=C[C@H]3C4)c(Cl)cnc2[nH]1 [Compound CXVII]
4. COc1cc(CN2CCN(C[C@@H](C)O)CC2)ccc1-c1nc2c(N[C@H]3[C@@H](C(N)=O)[C@@H]4C=C[C@H]3C4)c(Cl)cnc2[nH]1 [Compound XLIV]
5. CC(O)CN1CCN(C(=O)c2cccc(-c3nc4c(N[C@H]5[C@@H](C(N)=O)[C@@H]6C=C[C@H]5C6)c(Cl)cnc4[nH]3)c2)CC1 (stereo partly drawn) [Compound CCXXIII]
6. CN1CCN(c2ccc(-c3nc4c(N[C@@H]5[C@H]6CC[C@H](C6)[C@@H]5C(N)=O)c(Br)cnc4[nH]3)cc2)CC1 [Compound CXIII]

Output:
1. 184 to 185 °C
2. > 250 °C
3. 232 to 235 °C
4. 157 to 159 °C
5. 183 °C
6. 256 to 258 °C

Task: For the compound shown here, NC(=O)[C@@H]1[C@H](Nc2c(Cl)cnc3[nH]c(-c4ccc(C(=O)NCC(=O)O)cc4)nc23)[C@H]2C=C[C@@H]1C2 [Compound CCXXVIII] , give the reported melting point.
Output: 291 °C

====

assayedSystem: baculovirus-expressed JAK2 kinase (Homo sapiens)
procedureText: biochemical
conditionParameters: 0.2 μM ATP; read-out: JAK2 Potency
metricName: IC50

A selection of reference data follows.
>>> result("COc1ccncc1-c1nc2c(N[C@H]3[C@@H](C(N)=O)[C@@H]4C=C[C@H]3C4)c(Br)cnc2[nH]1")
"100 to 1000 nM"
>>> result("CN1CCN(C(=O)COc2ccc(-c3nc4c(N[C@H]5[C@@H](C(N)=O)[C@@H]6C=C[C@H]5C6)c(Cl)cnc4[nH]3)cc2)CC1")
"< 100 nM"

Alright, here's another molecule for you.
Task: For the molecule shown here, `NC(=O)[C@@H]1[C@H](Nc2c(Cl)cnc3[nH]c(-c4ccc(N5CCOCC5)c(Cl)c4)nc23)[C@H]2C=C[C@@H]1C2` , give the reported IC50.
Output: < 100 nM

====

assayedSystem: UniProtKB O60674
procedureText: biochemical
conditionParameters: 0.2 μM ATP; read-out: JAK2 Potency
pIC50: −log10 of the molar value.
For each entry below, report its pIC50 value.

Record pIC50 for all entries; do not skip any.
1. NC(=O)[C@@H]1[C@H](Nc2c(Cl)cnc3[nH]c(-c4cccc(C(=O)N5CCNCC5)c4)nc23)[C@H]2C=C[C@@H]1C2
2. CC(C)NC(=O)[C@@H]1[C@H](Nc2c(Cl)cnc3[nH]c(-c4sc(N5CCOCC5)nc4Cl)nc23)[C@H]2C=C[C@@H]1C2
3. CC(O)CN1CCN(C(=O)COc2cccc(-c3nc4c(N[C@H]5[C@@H](C(N)=O)[C@@H]6C=C[C@H]5C6)c(Cl)cnc4[nH]3)c2)CC1 (stereo partly drawn)
4. CC(C)NC(=O)[C@@H]1[C@H](Nc2c(Cl)cnc3[nH]c(-c4sc(N5CC[C@@H](O)C5)nc4Cl)nc23)[C@H]2C=C[C@@H]1C2

Output:
1: > 7.00; 2: < 5.00; 3: > 7.00; 4: 5.00 to 6.00

Record pIC50 for all entries; do not skip any.
1. O=C(NC1CC1)[C@@H]1[C@H](Nc2c(Cl)cnc3[nH]c(-c4sc(N5CCCC5)nc4Cl)nc23)[C@H]2C=C[C@@H]1C2
2. Cn1cc(-c2nc3c(N[C@H]4[C@@H](C(N)=O)[C@@H]5C=C[C@H]4C5)c(Cl)cnc3[nH]2)cn1

Output:
6.00 to 7.00
> 7.00

====

assayedSystem: baculovirus-expressed JAK2 kinase (Homo sapiens)
procedureText: biochemical
conditionParameters: 0.2 μM ATP; read-out: JAK2 Potency
pIC50: −log10 of the molar value. Counter-ions that a name gives are not always drawn.
metricName: pIC50

Record pIC50 for all entries; do not skip any.
1. NC(=O)[C@@H]1[C@H](Nc2c(Cl)cnc3[nH]c(-c4ccc(OCCN5CCOCC5)cc4)nc23)[C@H]2C=C[C@@H]1C2
2. CC(O)CN1CCN(C(=O)c2cccc(-c3nc4c(N[C@H]5[C@@H](C(N)=O)[C@@H]6C=C[C@H]5C6)c(Cl)cnc4[nH]3)c2)CC1 (stereo partly drawn)
3. COc1cc(CN2CCOCC2)ccc1Nc1nc2c(N[C@H]3[C@@H](C(N)=O)[C@@H]4C=C[C@H]3C4)c(Cl)cnc2[nH]1
4. COc1cc(N2CCC(N3CCN(C)CC3)CC2)ccc1-c1nc2c(N[C@H]3[C@@H](C(N)=O)[C@@H]4C=C[C@H]3C4)c(Br)cnc2[nH]1
5. NC(=O)[C@@H]1[C@H](Nc2ccnc3[nH]c(-c4ccc(N5CCOCC5)cc4)nc23)[C@H]2C=C[C@@H]1C2

Output:
> 7.00
> 7.00
> 7.00
> 7.00
5.00 to 6.00

Task: For the molecule shown here, NC(=O)[C@@H]1[C@H](Nc2c(Cl)cnc3[nH]c(-c4ccc(N5CCNCC5)cc4)nc23)[C@H]2C=C[C@@H]1C2 [Compound XV, trifluoroacetic acid salt] , give the reported pIC50.
Output: > 7.00

====

assayedSystem: baculovirus-expressed ALK (Homo sapiens, UniProt Q9UM73)
Sequence (Q9UM73 19-1620): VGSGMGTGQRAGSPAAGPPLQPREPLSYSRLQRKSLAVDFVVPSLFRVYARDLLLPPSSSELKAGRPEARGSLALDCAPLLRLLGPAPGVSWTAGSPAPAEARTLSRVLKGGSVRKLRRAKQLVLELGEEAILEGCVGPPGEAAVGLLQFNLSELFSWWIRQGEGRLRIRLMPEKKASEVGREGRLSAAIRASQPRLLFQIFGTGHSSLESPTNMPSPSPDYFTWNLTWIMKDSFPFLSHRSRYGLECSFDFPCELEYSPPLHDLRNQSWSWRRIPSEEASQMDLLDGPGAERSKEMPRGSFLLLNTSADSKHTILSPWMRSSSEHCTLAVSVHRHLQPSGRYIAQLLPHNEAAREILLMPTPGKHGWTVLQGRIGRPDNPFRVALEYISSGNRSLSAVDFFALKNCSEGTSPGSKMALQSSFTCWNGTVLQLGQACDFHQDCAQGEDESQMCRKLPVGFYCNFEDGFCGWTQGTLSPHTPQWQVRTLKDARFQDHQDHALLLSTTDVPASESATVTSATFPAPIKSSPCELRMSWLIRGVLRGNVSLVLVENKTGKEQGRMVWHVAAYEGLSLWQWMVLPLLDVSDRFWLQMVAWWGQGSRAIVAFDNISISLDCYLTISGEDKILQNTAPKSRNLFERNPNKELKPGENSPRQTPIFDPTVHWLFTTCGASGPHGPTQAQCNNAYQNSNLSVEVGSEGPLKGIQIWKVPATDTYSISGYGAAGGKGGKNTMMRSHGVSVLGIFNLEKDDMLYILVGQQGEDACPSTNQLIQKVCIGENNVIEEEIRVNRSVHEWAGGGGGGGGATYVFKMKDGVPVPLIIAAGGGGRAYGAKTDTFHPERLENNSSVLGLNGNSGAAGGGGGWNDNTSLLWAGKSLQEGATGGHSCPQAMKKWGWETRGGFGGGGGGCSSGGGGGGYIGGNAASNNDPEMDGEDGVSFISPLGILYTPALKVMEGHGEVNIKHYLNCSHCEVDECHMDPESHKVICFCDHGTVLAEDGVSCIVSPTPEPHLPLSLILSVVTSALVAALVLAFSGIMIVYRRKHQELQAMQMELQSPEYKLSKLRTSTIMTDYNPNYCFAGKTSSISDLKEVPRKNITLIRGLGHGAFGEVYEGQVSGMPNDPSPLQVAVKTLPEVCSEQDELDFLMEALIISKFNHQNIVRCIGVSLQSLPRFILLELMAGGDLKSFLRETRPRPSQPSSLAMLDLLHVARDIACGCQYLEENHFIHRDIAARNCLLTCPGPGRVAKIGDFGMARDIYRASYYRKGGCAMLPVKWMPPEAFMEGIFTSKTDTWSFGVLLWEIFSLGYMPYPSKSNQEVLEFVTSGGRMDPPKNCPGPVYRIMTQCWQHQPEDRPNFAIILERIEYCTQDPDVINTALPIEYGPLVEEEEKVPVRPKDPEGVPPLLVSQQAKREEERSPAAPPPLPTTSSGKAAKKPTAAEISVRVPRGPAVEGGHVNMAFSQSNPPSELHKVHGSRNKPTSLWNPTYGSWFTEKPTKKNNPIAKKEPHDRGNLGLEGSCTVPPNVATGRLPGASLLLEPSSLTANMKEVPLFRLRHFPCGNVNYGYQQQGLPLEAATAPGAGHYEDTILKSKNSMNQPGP
procedureText: ALK kinase inhibition, TRF/ELISA
Type: biochemical
conditionParameters: read-out: ALK Potency
metricName: IC50

A selection of reference data follows.
>>> result("NC(=O)[C@@H]1[C@H](Nc2ccnc3[nH]c(-c4ccc(CN5CCOCC5)cc4)nc23)[C@H]2C=C[C@@H]1C2")
"> 10000 nM"
>>> result("NC(=O)[C@@H]1[C@H](Nc2c(Cl)cnc3[nH]c(-c4ccc(C(=O)N5CCNCC5)cc4)nc23)[C@H]2C=C[C@@H]1C2")
"< 100 nM"
>>> result("CN1CCC(Oc2cccc(-c3nc4c(N[C@H]5[C@@H](C(N)=O)[C@@H]6C=C[C@H]5C6)c(Cl)cnc4[nH]3)c2)CC1")
"< 100 nM"
>>> result("CN(C)CCOc1cccc(-c2nc3c(N[C@H]4[C@@H](C(N)=O)[C@@H]5C=C[C@H]4C5)c(Cl)cnc3[nH]2)c1")
"< 100 nM"
>>> result("NC(=O)[C@@H]1[C@H](Nc2c(Br)cnc3[nH]c(-c4ccoc4)nc23)[C@H]2C=C[C@@H]1C2")
"100 to 1000 nM"
>>> result("NC(=O)COc1cccc(-c2nc3c(N[C@H]4[C@@H](C(N)=O)[C@@H]5C=C[C@H]4C5)c(Cl)cnc3[nH]2)c1")
"100 to 1000 nM"

Record IC50 for all entries; do not skip any.
1. NC(=O)[C@@H]1[C@H](Nc2c(Br)cnc3[nH]c(-c4ccccc4Cl)nc23)[C@H]2C=C[C@@H]1C2
2. NC(=O)[C@@H]1[C@H](Nc2c(Cl)cnc3[nH]c(-c4ccc(C(=O)NCC(=O)O)cc4)nc23)[C@H]2C=C[C@@H]1C2
3. Cc1cc(N2CCOCC2)ccc1-c1nc2c(N[C@H]3[C@@H](C(N)=O)[C@@H]4C=C[C@H]3C4)c(Br)cnc2[nH]1
4. Cc1nn(C)c(N2CCOCC2)c1-c1nc2c(N[C@H]3[C@@H](C(N)=O)[C@@H]4C=C[C@H]3C4)c(Cl)cnc2[nH]1

Output:
1: 100 to 1000 nM; 2: 100 to 1000 nM; 3: < 100 nM; 4: 1000 to 10000 nM

Record IC50 for all entries; do not skip any.
1. CN(C)CCNC(=O)c1ccc(-c2nc3c(N[C@H]4[C@@H](C(N)=O)[C@@H]5C=C[C@H]4C5)c(Cl)cnc3[nH]2)cc1
2. COc1cc(N2CCOCC2)ccc1-c1nc2c(NC34CCC(C)(C(O)C3)C4(C)C)c(Cl)cnc2[nH]1 (stereo not shown)
3. CC12CCC(Nc3c(Cl)cnc4[nH]c(-c5ccc(N6CCOCC6)cc5)nc34)(CC1=O)C2(C)C (stereo not shown)

Output:
1: < 100 nM; 2: 100 to 1000 nM; 3: > 10000 nM
